Biological target: 5-HT7R (Homo sapiens (Human))
Sequence (P34969 whole entry): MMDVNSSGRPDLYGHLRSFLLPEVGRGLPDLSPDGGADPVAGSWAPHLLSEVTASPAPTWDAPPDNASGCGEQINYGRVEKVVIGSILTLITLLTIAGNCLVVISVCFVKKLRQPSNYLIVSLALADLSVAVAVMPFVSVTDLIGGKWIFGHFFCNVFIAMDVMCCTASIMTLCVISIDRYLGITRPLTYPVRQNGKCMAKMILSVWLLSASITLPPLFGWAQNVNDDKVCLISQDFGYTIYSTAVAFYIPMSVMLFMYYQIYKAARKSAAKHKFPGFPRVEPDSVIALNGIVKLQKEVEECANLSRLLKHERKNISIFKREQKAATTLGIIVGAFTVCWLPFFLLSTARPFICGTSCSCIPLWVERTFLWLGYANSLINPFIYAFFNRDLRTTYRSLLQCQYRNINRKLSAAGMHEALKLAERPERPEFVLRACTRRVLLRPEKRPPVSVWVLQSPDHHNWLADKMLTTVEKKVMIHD
Assay: cAMP assay (luminescence-based, GloSensor)
Type: cell-based
Conditions: 10 μM; HEK293 cells transfected with human 5-HT7R and GloSensor-22F
Quick reference: inhibition at 10 µM of the listed items.
Metric name: inhibition at 10 µM (%)

INSERT INTO assay_data (compound, metric_name, measurement) VALUES
  ('Clc1ccccc1-c1cc(CN2CCCC2)ccc1Cl [Compound 13]', 'inhibition at 10 µM', 90.7),
  ('c1ccc(-c2cccc(CN3CCCC3)c2)cc1 [Compound 1]', 'inhibition at 10 µM', 42.1),
  ('COc1cccc(-c2cccc(CN3CCCC3)c2)c1 [Compound 9]', 'inhibition at 10 µM', 67.2),
  ('COc1cccc(-c2cccc(C3=NCCN3)c2)c1 [Compound 31]', 'inhibition at 10 µM', 72.5);
